The reader will find reported GI50 values listed item by item below.
# System: NCI-H23
# Assay procedure: NCI tumour cell line growth inhibition, 48 h
Active and inactive are the calls of the source. Cut-off read from the data, not from the text of the source: active = GI50 up to about 1.1 µM and inactive = higher.

OCCN(CCO)c1ccc2c(C(F)(F)F)cc(C(F)(F)F)nc2n1    > 100 µM (inactive)
O=C(NCCC1CNc2ccccc21)OCc1ccccc1 (configuration not stated)    > 100 µM (inactive)

Reported GI50, compound O=c1[nH]c(=O)n(C2CC(O)C(CO)O2)cc1C1=NC1 (configuration not stated) : ____ > 100 µM (inactive)

Fill in the blank: the reported GI50 of COc1cc2c3cc1Oc1c(OC)c(OC)cc4c1C(Cc1ccc(O)c(c1)-c1cc(ccc1OC)CC3N(C)CC2)N(C)CC4 (configuration not stated) is ____. 21.4 µM (inactive)

# lookup: GI50 of "O/N=C(\c1ccccc1)N1CCCCC1" > 100 µM (inactive)

---

# Tested on: HCT-116
# Assay procedure: NCI tumour cell line growth inhibition, 48 h
The source made the active and inactive calls. Rule as the data show it: active = GI50 up to about 1.1 µM and inactive = higher.
The reply should be one of these categories: active, inactive

Outcome logged for "O=c1cc(N2CCNCC2)nc2ccccn12" in this assay: inactive

Hi, sorry to bother you, what did the test record for "CCCCCCCCCc1cc(=O)c2c(O)cc(O)cc2o1" ? inactive

Test call for this molecule, please: "Cc1cc2c(O)nc(N)nc2nc1C" inactive

Please share the test call associated with "CC(C)C(=O)/C=C/c1ccc(Cl)cc1Cl" . inactive

In this assay, the call recorded for "Clc1cc(-c2csc(Cl)c2)cs1" was what? inactive

---

# Tested on: K562
# Assay procedure: NCI tumour cell line growth inhibition, 48 h
The source made the active and inactive calls. No stated cut-off is given here; in the data, active = GI50 up to about 1.1 µM and inactive = higher.
Returns: one label drawn from active, inactive

Study these solved cases before continuing.
Nc1ncnc2c1cnn2Cc1ccc(Cl)cc1    inactive
Cc1cc(OC(=O)Nc2cccc3ccccc23)c(C(C)C)cc1C(=S)Nc1ccccc1    inactive
COc1cc2[nH]c(=O)c3cc(C)cc4c(Cl)nc(c1OC)c2c43    inactive
CC1(F)C=CC(=O)C=C1    inactive

# fetch the recorded call for "CCOC(=O)c1c(C)cc(=O)n2c1[nH]c1ccccc12" here inactive

Could you check what this test reported for "Cc1ccc(S(=O)(=O)OC2CCN(C)CC2)cc1" ? inactive

Name the outcome recorded for "CC(C)OP(=O)(OC(C)C)/C(=N/Nc1ccc([N+](=O)[O-])cc1)Nc1ccc(N/C(=N\Nc2ccc([N+](=O)[O-])cc2)P(=O)(OC(C)C)OC(C)C)cc1" in the assay. inactive

Can you look up the reported call for COC(=O)C1=C(O)C(C(=O)OC)[C@]2(O)[C@H](C(=O)OC)[C@H]1C[C@@H](c1c(Cl)cccc1Cl)[C@H]2C(=O)OC (stereo not given in full) for me? inactive

// param item: "Cc1cc(C)c2c(=N)c3ccccc3n(CCCCCCCCn3c4ccccc4c(=N)c4c(C)cc(C)nc43)c2n1" ; yields the recorded call active

Look up the recorded call for "C/C(=N\NC(=S)NC1CCCC1)c1ccccn1" in this test. active

---

# Tested on: NCI/ADR-RES
# Assay procedure: NCI tumour cell line growth inhibition, 48 h
Active and inactive are the calls of the source. Rule as the data show it: active = GI50 up to about 1.1 µM and inactive = higher.
Hi there, use one of these labels in your reply, thanks! active, inactive

Use these answered entries as a reference point.
Cc1ccc(-c2n[nH]c(=O)n2/N=C\c2ccccc2)cc1    inactive
C/C(=N\NC(=S)N1CCCCC1)c1cccc(C)n1    active

Then this compound:
What did the test return for CCOC(=O)CCC(NC(=O)Cc1ccc(Oc2nc3ccccc3nc2-c2ccccc2)cc1)C(=O)OCC (stereo not given) ? inactive
